experiment: in vitro; details: rat, gh3-tre-luc cells, AC50 (uM) modified / 1000, Tox21_110001=Tox21_200489; viability, 1 nM T3 present, 24 h
Where a name gives a salt, the structure may show the parent alone.
Property: CC50 at 24 h

Q) Quick one: CC50 at 24 h of NNCc1ccccc1 [Benzylhydrazine dihydrochloride] ?
A) > 90 µM

* * *

system: GH3-TRE-Luc cell line; settings: read-out: AC50 (uM) modified / 1000; Tox21_110001=Tox21_111123; viability, 1 nM T3 present, 24 h
Property: CC50

Q) Which CC50 is listed for CC[n+]1c(-c2ccccc2)c2cc(N)ccc2c2ccc(N)cc21 [Ethidium bromide] ?
A) 37.9 µM
